This listing pairs compounds with measured pIC50.
Test system: lung cancer (A-549) cell line
PROTOCOL_SUMMARY: Antiproliferative assay, A-549
Type: cell-based
CONDITION: Homo sapiens, A549; A-549 lung cancer cells; read-out: Antiproliferative Activity IC50 ± SEM, A-549
Units for pIC50: none; it is -log10 of a concentration expressed in mol/L.

These recorded examples may help you get a feel for the data.
# COMPOUND, PROPERTY_LABEL, RECORDED_MEASUREMENT
data = [
    ("C=CCn1c(C)cs/c1=N\\NS(=O)(=O)c1ccc(C)cc1", "pIC50", 7.20),
    ("Cc1cs/c(=N\\Nc2ccc([N+](=O)[O-])cc2[N+](=O)[O-])n1Cc1ccccc1", "pIC50", 7.35),
    ("Cc1cs/c(=N/Nc2ccc([N+](=O)[O-])cc2[N+](=O)[O-])n1C1CCCCC1", "pIC50", 7.37),
]

Returns the measured pIC50 for the input compound. Input: Cc1cs/c(=N\Nc2ccc([N+](=O)[O-])cc2[N+](=O)[O-])n1-c1ccccc1 7.15

What do you get for C=CCn1c(C)cs/c1=N\Nc1ccc([N+](=O)[O-])cc1[N+](=O)[O-] ? 7.30

What do you get for CCn1c(C)cs/c1=N\Nc1ccc([N+](=O)[O-])cc1[N+](=O)[O-] ? 7.11

What do you get for CCn1c(C)cs/c1=N\NS(=O)(=O)c1ccc(C)cc1 ? 7.08

---

This listing pairs molecules with measured pIC50.
System: breast cancer (MCF-7) cell line
PROTOCOL_SUMMARY: Antiproliferative assay, MCF-7
Format: cell-based
CONDITION: Homo sapiens, MCF7; MCF-7 breast cancer cells; read-out: Antiproliferative Activity IC50 ± SEM, MCF-7
Units for pIC50: none; it is -log10 of a concentration expressed in mol/L.

# MOLECULE, EXPERIMENTAL_TARGET, pIC50
rows = [
    ("C#Cc1cccc(Nc2ncnc3cc(OCCOC)c(OCCOC)cc23)c1 [Erlotinib, reference compound]", "breast cancer (MCF-7) cell line", 7.40),
    ("Cc1cs/c(=N/Nc2ccc([N+](=O)[O-])cc2[N+](=O)[O-])n1C1CCCCC1 [Compound 3d]", "breast cancer (MCF-7) cell line", 7.33),
    ("Cc1ccc(S(=O)(=O)N/N=c2\\scc(C)n2-c2ccccc2)cc1 [Compound 3g]", "breast cancer (MCF-7) cell line", 7.20),
    ("CCn1c(C)cs/c1=N\\Nc1ccc([N+](=O)[O-])cc1[N+](=O)[O-] [Compound 3b]", "breast cancer (MCF-7) cell line", 7.09),
    ("C=CCn1c(C)cs/c1=N\\Nc1ccc([N+](=O)[O-])cc1[N+](=O)[O-] [Compound 3c]", "breast cancer (MCF-7) cell line", 7.25),
    ("Cc1ccc(-n2c(C)cs/c2=N/Nc2ccc([N+](=O)[O-])cc2[N+](=O)[O-])cc1 [Compound 3f]", "breast cancer (MCF-7) cell line", 7.40),
    ("Cc1cs/c(=N\\Nc2ccc([N+](=O)[O-])cc2[N+](=O)[O-])n1-c1ccccc1 [Compound 3e]", "breast cancer (MCF-7) cell line", 7.13),
    ("CCn1c(C)cs/c1=N\\NS(=O)(=O)c1ccc(C)cc1 [Compound 3i]", "breast cancer (MCF-7) cell line", 7.05),
]

Returns the measured pIC50 for the input molecule. Input: Cc1cs/c(=N\Nc2ccc([N+](=O)[O-])cc2[N+](=O)[O-])n1Cc1ccccc1 [Compound 3a] 7.31

What do you get for C=CCn1c(C)cs/c1=N\NS(=O)(=O)c1ccc(C)cc1 [Compound 3h] ? 7.17

---

PROTOCOL_SUMMARY: Cell viability assay (MTT) on normal mammary epithelial cells
CONDITION: human, MCF-10A mammary gland epithelial cells
PROPERTY_LABEL: viability at 96 h, 50 µM (%)
Just the number please, in %, no unit attached.

# CHEMICAL_STRING, PROPERTY_LABEL, RECORDED_MEASUREMENT
rows = [
    ("C=CCn1c(C)cs/c1=N\\Nc1ccc([N+](=O)[O-])cc1[N+](=O)[O-]", "viability at 96 h, 50 µM", 90),
    ("C=CCn1c(C)cs/c1=N\\NS(=O)(=O)c1ccc(C)cc1", "viability at 96 h, 50 µM", 92),
    ("CCn1c(C)cs/c1=N\\NS(=O)(=O)c1ccc(C)cc1", "viability at 96 h, 50 µM", 95),
]

Returns the measured viability at 96 h, 50 µM for the input molecule. Input: Cc1cs/c(=N/Nc2ccc([N+](=O)[O-])cc2[N+](=O)[O-])n1C1CCCCC1 92

What do you get for Cc1ccc(S(=O)(=O)N/N=c2\scc(C)n2-c2ccccc2)cc1 ? 90

What do you get for Cc1cs/c(=N\Nc2ccc([N+](=O)[O-])cc2[N+](=O)[O-])n1Cc1ccccc1 ? 89

---

Tested on: lung cancer (A-549) cell line
PROTOCOL_SUMMARY: Antiproliferative assay, A-549
Assay type: cell-based
CONDITION: Homo sapiens, A549; A-549 lung cancer cells; read-out: Antiproliferative Activity IC50 ± SEM, A-549
PROPERTY_LABEL: pIC50
Units for pIC50: none; it is -log10 of a concentration expressed in mol/L.

# MOLECULE, RECORDED_MEASUREMENT
data = [
    ("C#Cc1cccc(Nc2ncnc3cc(OCCOC)c(OCCOC)cc23)c1 [Erlotinib, reference compound]", 7.52),
    ("Cc1ccc(S(=O)(=O)N/N=c2\\scc(C)n2-c2ccccc2)cc1", 7.24),
]

Please find the next molecule below.
Returns the measured pIC50 for the input molecule. Input: Cc1ccc(-n2c(C)cs/c2=N/Nc2ccc([N+](=O)[O-])cc2[N+](=O)[O-])cc1 7.46
